FYI, the data here is from ChEMBL document CHEMBL1136550.

Provide the recorded pD2 for the entries that follow.
Species on record: Rattus norvegicus
assay procedure: Inhibition of contraction induced by 100 mM KCl in isolated rat aorta
Assay type: functional
One number for each entry.

Example compounds with recorded pD2:
| compound | numeric readout |
| --- | --- |
| FC(F)(F)c1cc(COCC(c2ccccc2)N2CCNCC2)cc(C(F)(F)F)c1 (configuration not stated) | 5.38 |
| NC(=O)CN1CCN([C@@H](COCc2cc(C(F)(F)F)cc(C(F)(F)F)c2)c2ccccc2)CC1 | 4.27 |

Below: the item to evaluate.
Task: Entry CCCCN1CCN(C(COCc2cc(C(F)(F)F)cc(C(F)(F)F)c2)c2ccccc2)CC1 (configuration not stated) needs its pD2 filled in; supply it.
Output: 4.6

====

target or system: Substance-P receptor (Homo sapiens, UniProt P25103)
Sequence (P25103 whole entry): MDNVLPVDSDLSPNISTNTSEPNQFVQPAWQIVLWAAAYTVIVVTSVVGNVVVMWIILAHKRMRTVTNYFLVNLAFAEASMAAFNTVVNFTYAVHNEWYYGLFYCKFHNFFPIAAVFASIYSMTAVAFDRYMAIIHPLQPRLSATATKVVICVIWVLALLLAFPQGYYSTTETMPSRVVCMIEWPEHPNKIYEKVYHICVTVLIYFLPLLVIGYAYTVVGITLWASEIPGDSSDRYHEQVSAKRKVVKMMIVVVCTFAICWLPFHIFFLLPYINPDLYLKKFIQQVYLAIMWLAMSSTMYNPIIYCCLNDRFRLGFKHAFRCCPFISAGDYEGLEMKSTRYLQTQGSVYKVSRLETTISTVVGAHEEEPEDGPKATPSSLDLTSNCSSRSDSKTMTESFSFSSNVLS
assay procedure: Displacement of [3H]-substance P from human NK1 receptor expressed in CHO cells, at 10e-5 M
Assay type: cell-based
outcome measure: inhibition

| compound | inhibition |
| --- | --- |
| C[C@@H](OC[C@H](c1ccccc1)N1CCN(CCOCC(=O)O)CC1)c1cc(C(F)(F)F)cc(C(F)(F)F)c1 | < 20% |
| C[C@@H](OC[C@@H](c1ccccc1)N1CCN(CCOCC(=O)O)CC1)c1cc(C(F)(F)F)cc(C(F)(F)F)c1 | < 20% |
| C[C@@H](OC[C@@H](c1ccccc1)N1CCN(CC(=O)O)CC1)c1cc(C(F)(F)F)cc(C(F)(F)F)c1 | < 20% |
| O=C(O)CCCC(=O)N1CCN(C(COCc2cc(C(F)(F)F)cc(C(F)(F)F)c2)c2ccccc2)CC1 (centres undefined) | < 20% |
| FC(F)(F)Oc1ccccc1COCC(c1ccccc1)N1CCNCC1 (centres undefined) | 50% |

Record inhibition per entry; entries follow.
1. COc1ccccc1COCC(c1ccccc1)N1CCNCC1 (centres undefined)
2. C[C@@H](OC[C@H](c1ccccc1)N1CCN(CC(=O)O)CC1)c1cc(C(F)(F)F)cc(C(F)(F)F)c1
3. Clc1ccccc1COCC(c1ccccc1)N1CCNCC1 (centres undefined)
4. c1ccc(COCC(c2ccccc2)N2CCNCC2)cc1 (centres undefined)

Output:
["< 20%", "< 20%", "50%", "< 20%"]

====

assay procedure: LogD distribution coefficient between octanol and PBS at pH7.4
Format: physicochemical
cond: pH 7.4, read-out: LogD7.4
outcome measure: logD
Give bare numbers.

Parameter requested: logD. Apply to each item below.
1. O=C(O)CN1CCN(C(COCc2cc(C(F)(F)F)cc(C(F)(F)F)c2)c2ccccc2)CC1 (stereo not drawn)
2. O=C(O)COCCN1CCN(C(COCc2cc(C(F)(F)F)cc(C(F)(F)F)c2)c2ccccc2)CC1 (stereo not drawn)
3. FC(F)(F)c1cc(COCC(c2ccccc2)N2CCN(CCCCc3nn[nH]n3)CC2)cc(C(F)(F)F)c1 (stereo not drawn)
4. FC(F)(F)c1cc(COCC(c2ccccc2)N2CCNCC2)cc(C(F)(F)F)c1 (stereo not drawn)
5. CCCCN1CCN(C(COCc2cc(C(F)(F)F)cc(C(F)(F)F)c2)c2ccccc2)CC1 (stereo not drawn)

Output:
2.35
2.17
2.71
2.41
4.09

====

Target or system Substance-P receptor (Homo sapiens, UniProt P25103): recorded pKi listed per item.
Answers are plain numbers, as −log10 of the molar value.

// for each molecule below, give its pKi
1. FC(F)(F)c1cc(COCC(c2ccccc2)N2CCN(Cc3nn[nH]n3)CC2)cc(C(F)(F)F)c1 (stereo unspecified)
2. Clc1cc(Cl)cc(COCC(c2ccccc2)N2CCNCC2)c1 (stereo unspecified)
3. O=C(O)CN1CCN(C(COCc2cc(C(F)(F)F)cc(C(F)(F)F)c2)c2ccccc2)CC1 (stereo unspecified)
4. N#CCN1CCN(C(COCc2cc(C(F)(F)F)cc(C(F)(F)F)c2)c2ccccc2)CC1 (stereo unspecified)
5. COC(=O)CN1CCN(C(COCc2cc(C(F)(F)F)cc(C(F)(F)F)c2)c2ccccc2)CC1 (stereo unspecified)
6. C[C@H](OC[C@@H](c1ccccc1)N1CCN(CC(=O)O)CC1)c1cc(C(F)(F)F)cc(C(F)(F)F)c1
7. Fc1cccc(C(COCc2cc(C(F)(F)F)cc(C(F)(F)F)c2)N2CCNCC2)c1F (stereo unspecified)

Output:
1: 7.20; 2: 8.50; 3: 7.80; 4: 8.10; 5: 7.40; 6: 8.50; 7: 8.50

Please state pKi for every molecule in the list that follows.
1. Cc1cccc(C(COCc2cc(C(F)(F)F)cc(C(F)(F)F)c2)N2CCNCC2)c1 (stereo unspecified)
2. COc1ccc(C(COCc2cc(C(F)(F)F)cc(C(F)(F)F)c2)N2CCNCC2)cc1 (stereo unspecified)
3. O=C(O)COCCN1CCN(C(COCc2cc(C(F)(F)F)cc(C(F)(F)F)c2)c2ccccc2)CC1 (stereo unspecified)
4. FC(F)(F)c1cc(COCC(c2ccco2)N2CCNCC2)cc(C(F)(F)F)c1 (stereo unspecified)

Output:
1: 8.50; 2: 7.30; 3: 7.80; 4: 6.80

====

assay procedure: pKa value was evaluated
Type: physicochemical
Could you please report measured pKa for the items listed next?
Numbers only.

| molecule | numeric readout |
| --- | --- |
| NC(=O)CN1CCN([C@@H](COCc2cc(C(F)(F)F)cc(C(F)(F)F)c2)c2ccccc2)CC1 | 6.2 |
| NC(=O)COCCN1CCN(C(COCc2cc(C(F)(F)F)cc(C(F)(F)F)c2)c2ccccc2)CC1 (stereo not drawn) | 7.4 |

Consider the additional molecule presented here.
Task: Give pKa for the following molecule: NC(=O)CN1CCN([C@H](COCc2cc(C(F)(F)F)cc(C(F)(F)F)c2)c2ccccc2)CC1
Output: 6.2

====

assay procedure: Solubility was measured
Type: physicochemical
Consider the following molecules; for each one, report its solubility.
Give bare numbers, in µg/mL.

Use the examples below as a reference point.
| molecule | numeric readout |
| --- | --- |
| NC(=O)CN1CCN([C@@H](COCc2cc(C(F)(F)F)cc(C(F)(F)F)c2)c2ccccc2)CC1 | 2 |
| CCCCN1CCN(C(COCc2cc(C(F)(F)F)cc(C(F)(F)F)c2)c2ccccc2)CC1 (stereo not drawn) | 1 |
| FC(F)(F)c1cc(COCC(c2ccccc2)N2CCN(CCCCc3nn[nH]n3)CC2)cc(C(F)(F)F)c1 (stereo not drawn) | 200 |
| COc1cc(CN2CCN(C(COCc3cc(C(F)(F)F)cc(C(F)(F)F)c3)c3ccccc3)C(Cc3ccccc3)C2)cc(OC)c1OC (stereo not drawn) | 0.6 |
| FC(F)(F)c1cc(COCC(c2ccccc2)N2CCNCC2)cc(C(F)(F)F)c1 (stereo not drawn) | 200 |

Please examine the following record next.
Task: Quote solubility reported for O=C(O)CN1CCN(C(COCc2cc(C(F)(F)F)cc(C(F)(F)F)c2)c2ccccc2)CC1 (stereo not drawn) please.
Output: 1300

====

target or system: Substance-P receptor (Homo sapiens, UniProt P25103)
outcome measure: pKi
Give bare numbers, as −log10 of the molar value.

Some entries whose results are on file:
| molecule | pKi |
| --- | --- |
| FC(F)(F)c1ccc(COCC(c2ccccc2)N2CCNCC2)c(C(F)(F)F)c1 (stereo not given) | 7.80 |
| Fc1ccc(C(COCc2cc(C(F)(F)F)cc(C(F)(F)F)c2)N2CCNCC2)cc1 (stereo not given) | 7.10 |
| Clc1ccc(COCC(c2ccccc2)N2CCNCC2)cc1Cl (stereo not given) | 7.00 |
| FC(F)(F)c1cc(COCC(c2cccc(Cl)c2)N2CCNCC2)cc(C(F)(F)F)c1 (stereo not given) | 8.80 |
| COc1c(Br)cc(Br)cc1COCC(c1ccccc1)N1CCNCC1 (stereo not given) | 8.10 |

Dear colleague, could you please provide pKi for the molecules listed below?
1. Oc1n[nH]c(CN2CCN(C(COCc3cc(C(F)(F)F)cc(C(F)(F)F)c3)c3ccccc3)CC2)n1 (stereo not given)
2. CCOC(=O)N1CCN(C(COCc2cc(C(F)(F)F)cc(C(F)(F)F)c2)c2ccccc2)CC1 (stereo not given)
3. Brc1cc(Br)cc(COCC(c2ccccc2)N2CCNCC2)c1 (stereo not given)
4. Cc1cc(C)cc(COCC(c2ccccc2)N2CCNCC2)c1 (stereo not given)
5. NC(=O)CN1CCN([C@@H](COCc2cc(C(F)(F)F)cc(C(F)(F)F)c2)c2ccccc2)CC1

Output:
1: 7.80; 2: 7.20; 3: 8.30; 4: 7.60; 5: 8.00

====

Species: Rattus norvegicus
assay procedure: Inhibition of contraction induced by 100 mM KCl in isolated rat aorta
Assay type: functional
Provide the reported pD2 of each item.

| compound | pD2 |
| --- | --- |
| FC(F)(F)c1cc(COCC(c2ccccc2)N2CCN(CCCCc3nnn[nH]3)CC2)cc(C(F)(F)F)c1 (centres undefined) | <4 |
| O=C(O)COCCN1CCN(C(COCc2cc(C(F)(F)F)cc(C(F)(F)F)c2)c2ccccc2)CC1 (centres undefined) | <4 |
| O=C(O)CN1CCN(C(COCc2cc(C(F)(F)F)cc(C(F)(F)F)c2)c2ccccc2)CC1 (centres undefined) | <4 |

Now for the compound whose pD2 we want.
Task: Respond only with pD2 recorded for C[C@H](OC[C@H](c1ccccc1)N1CCN(CCOCC(=O)O)CC1)c1cc(C(F)(F)F)cc(C(F)(F)F)c1
Output: <4
